# Procedure Details: In vivo pharmacokinetics in rats after oral administration
# Protocol Conditions: male, Wistar, rat, in vivo, 20 mg/kg
Property Name: bioavailability (%)

{"Molecule": "CO[C@@H]1[C@@H](O)[C@H](O[C@@H]2[C@@H](O)[C@H](O[C@H]3[C@H](O)[C@@H](O)[C@H](O[C@H]4[C@H](O[C@H]5CC[C@]6(C)C7=C[C@H](O)[C@]89C(=O)O[C@@](C)(CCCC(C)C)[C@@]8(O)CC[C@@]9(C)C7CCC6C5(C)C)OC[C@@H](OS(=O)(=O)O)[C@@H]4O)O[C@@H]3C)O[C@H](CO)[C@H]2O)O[C@H](CO)[C@H]1O (stereo partly shown) [Echinoside A]", "Unit Info": "%", "Experimental Result": 59}

====

# Procedure Details: in vivo
# Protocol Conditions: male, Wistar, rat, iv, 20 mg/kg
Property Name: Cmax (ng/mL)

{"Molecule": "CO[C@@H]1[C@@H](O)[C@H](O[C@@H]2[C@@H](O)[C@H](O[C@H]3[C@H](O)[C@@H](O)[C@H](O[C@H]4[C@H](O[C@H]5CC[C@]6(C)C7=C[C@H](O)[C@]89C(=O)O[C@@](C)(CCCC(C)C)[C@@]8(O)CC[C@@]9(C)C7CCC6C5(C)C)OC[C@@H](OS(=O)(=O)O)[C@@H]4O)O[C@@H]3C)O[C@H](CO)[C@H]2O)O[C@H](CO)[C@H]1O (some centres unmarked) [Echinoside A]", "Property Name": "Cmax", "Experimental Result": 4000}
{"Molecule": "C=C(C)CCCC1(C)OC(=O)C23CC=C4C(CCC5C4(C)CCC(OC4OCC(OC6OC(CO)C(O)C(OC7OC(CO)C(O)C(OC)C7O)C6O)C(O)C4OC4OC(C)C(OC6OCC(O)C(OC7OC(CO)C(O)C(OC)C7O)C6O)C(O)C4O)C5(C)C)C2(C)CC(=O)C13 (centres unmarked) [Holotoxin A1]", "Property Name": "Cmax", "Experimental Result": 2870}

====

# key: entry, value: AUC
# Procedure Details: in vivo
# Protocol Conditions: male, Wistar, rat, iv, 20 mg/kg
Property Name: AUC (ng·h/mL)

{"Compound": "C=C(C)CCCC1(C)OC(=O)C23CC=C4C(CCC5C4(C)CCC(OC4OCC(OC6OC(CO)C(O)C(OC7OC(CO)C(O)C(OC)C7O)C6O)C(O)C4OC4OC(C)C(OC6OCC(O)C(OC7OC(CO)C(O)C(OC)C7O)C6O)C(O)C4O)C5(C)C)C2(C)CC(=O)C13 (centres unmarked)", "Property Name": "AUC", "Experimental Result": 6530}
{"Compound": "CO[C@@H]1[C@@H](O)[C@H](O[C@@H]2[C@@H](O)[C@H](O[C@H]3[C@H](O)[C@@H](O)[C@H](O[C@H]4[C@H](O[C@H]5CC[C@]6(C)C7=C[C@H](O)[C@]89C(=O)O[C@@](C)(CCCC(C)C)[C@@]8(O)CC[C@@]9(C)C7CCC6C5(C)C)OC[C@@H](OS(=O)(=O)O)[C@@H]4O)O[C@@H]3C)O[C@H](CO)[C@H]2O)O[C@H](CO)[C@H]1O (some centres unmarked) [Echinoside A]", "Property Name": "AUC", "Experimental Result": 16400}

====

# Procedure Details: in vitro
# Protocol Conditions: human, Caco-2, Recovery (AP + BL chambers + cell monolayer), time 60 min

{"Compound": "CO[C@@H]1[C@@H](O)[C@H](O[C@@H]2[C@@H](O)[C@H](O[C@H]3[C@H](O)[C@@H](O)[C@H](O[C@H]4[C@H](O[C@H]5CC[C@]6(C)C7=C[C@H](O)[C@]89C(=O)O[C@@](C)(CCCC(C)C)[C@@]8(O)CC[C@@]9(C)C7CCC6C5(C)C)OC[C@@H](OS(=O)(=O)O)[C@@H]4O)O[C@@H]3C)O[C@H](CO)[C@H]2O)O[C@H](CO)[C@H]1O (stereo partly shown) [Echinoside A]", "recovery [%]": 97.4}

====

# Procedure Details: In vivo pharmacokinetics in rats after oral administration
# Protocol Conditions: male, Wistar, rat, in vivo, po, 20 mg/kg, T1/2, rat
Property Name: half-life (h)

{"Compound": "CO[C@@H]1[C@@H](O)[C@H](O[C@@H]2[C@@H](O)[C@H](O[C@H]3[C@H](O)[C@@H](O)[C@H](O[C@H]4[C@H](O[C@H]5CC[C@]6(C)C7=C[C@H](O)[C@]89C(=O)O[C@@](C)(CCCC(C)C)[C@@]8(O)CC[C@@]9(C)C7CCC6C5(C)C)OC[C@@H](OS(=O)(=O)O)[C@@H]4O)O[C@@H]3C)O[C@H](CO)[C@H]2O)O[C@H](CO)[C@H]1O (stereo partly shown) [Echinoside A]", "Property Name": "half-life", "Unit Info": "h", "Experimental Result": 6.99}

====

# Procedure Details: in vitro
# Protocol Conditions: human, Caco-2

{"Compound": "CC(C)NCC(O)COc1cccc2ccccc12 (stereo not shown) [propranolol, reference compound]", "Papp A→B at 150 min, 20 µM": "26.1 ×10⁻⁶ cm/s"}

====

# Procedure Details: in vivo
# Protocol Conditions: male, Wistar, rat, iv, 20 mg/kg
Property Name: Tmax (min)

{"Compound": "C=C(C)CCCC1(C)OC(=O)C23CC=C4C(CCC5C4(C)CCC(OC4OCC(OC6OC(CO)C(O)C(OC7OC(CO)C(O)C(OC)C7O)C6O)C(O)C4OC4OC(C)C(OC6OCC(O)C(OC7OC(CO)C(O)C(OC)C7O)C6O)C(O)C4O)C5(C)C)C2(C)CC(=O)C13 (centres unmarked)", "Experimental Result": 4.8}
{"Compound": "CO[C@@H]1[C@@H](O)[C@H](O[C@@H]2[C@@H](O)[C@H](O[C@H]3[C@H](O)[C@@H](O)[C@H](O[C@H]4[C@H](O[C@H]5CC[C@]6(C)C7=C[C@H](O)[C@]89C(=O)O[C@@](C)(CCCC(C)C)[C@@]8(O)CC[C@@]9(C)C7CCC6C5(C)C)OC[C@@H](OS(=O)(=O)O)[C@@H]4O)O[C@@H]3C)O[C@H](CO)[C@H]2O)O[C@H](CO)[C@H]1O (some centres unmarked) [Echinoside A]", "Experimental Result": 4.8}

====

# Procedure Details: in vitro
# Protocol Conditions: human, Caco-2
# key: entry, value: Papp B→A

{"Molecule": "C=C(C)CCCC1(C)OC(=O)C23CC=C4C(CCC5C4(C)CCC(OC4OCC(OC6OC(CO)C(O)C(OC7OC(CO)C(O)C(OC)C7O)C6O)C(O)C4OC4OC(C)C(OC6OCC(O)C(OC7OC(CO)C(O)C(OC)C7O)C6O)C(O)C4O)C5(C)C)C2(C)CC(=O)C13 (centres unmarked) [Holotoxin A1]", "Unit Info": "×10⁻⁶ cm/s", "Value Qualifier": "<", "Papp B→A": 0.83}
{"Molecule": "CO[C@@H]1[C@@H](O)[C@H](O[C@@H]2[C@@H](O)[C@H](O[C@H]3[C@H](O)[C@@H](O)[C@H](O[C@H]4[C@H](O[C@H]5CC[C@]6(C)C7=C[C@H](O)[C@]89C(=O)O[C@@](C)(CCCC(C)C)[C@@]8(O)CC[C@@]9(C)C7CCC6C5(C)C)OC[C@@H](OS(=O)(=O)O)[C@@H]4O)O[C@@H]3C)O[C@H](CO)[C@H]2O)O[C@H](CO)[C@H]1O (some centres unmarked) [Echinoside A]", "Unit Info": "×10⁻⁶ cm/s", "Value Qualifier": "=", "Papp B→A": 5.38}
